Entry source: patent US12410153B2

Assay: Repeated once-daily oral dosing with food (Days 1-7) in healthy subjects, PK and PD
Format: in vivo, human
Conditions: both sexes, human, plasma, oral, 12 mg, intermediate age, 12 mg, Day 7; read-out: t1/2, Mean (SD) (converted)
Procedure: A randomized, double-blind, placebo-controlled, parallel-dose group in-patient study is conducted to investigate the pharmacodynamic (PD) effects of crystalline Form II of Compound (I) in healthy subjects. The study is designed as a three-part, sequential study. […]

| Molecule | half-life / h |
| --- | --- |
| Cc1ccc(COC(=O)N2CC[C@H](CNc3ncccn3)[C@H](F)C2)cc1 [Form II] | 26.1 |

====

assay: Repeated once-daily oral dosing with food (Days 1-7) in healthy subjects, PK and PD; type: in vivo, human; conditions: both sexes, human, plasma, oral, 20 mg, young subjects, 20 mg, Day 7; read-out: t1/2, Mean (SD) (converted)

| Compound | half-life (min) |
| --- | --- |
| Cc1ccc(COC(=O)N2CC[C@H](CNc3ncccn3)[C@H](F)C2)cc1 [Form II] | 1120 |

====

assay: Repeated once-daily oral dosing with food (Days 1-7) in healthy subjects, PK and PD; assay type: in vivo, human; conditions: male, human, plasma, oral, males, all doses pooled, Day 1; read-out: AUC0-24, Mean (SD)

| Molecule | AUC(0-t) / µg·h/mL |
| --- | --- |
| Cc1ccc(COC(=O)N2CC[C@H](CNc3ncccn3)[C@H](F)C2)cc1 [Form II] | 2.21 |

====

assay: Repeated once-daily oral dosing with food (Days 1-7) in healthy subjects, PK and PD; format: in vivo, human; settings: both sexes, human, plasma, oral, 12 mg, intermediate age, 12 mg, Day 7; read-out: tmax, Median

| Compound | Unit tag | Tmax |
| --- | --- | --- |
| Cc1ccc(COC(=O)N2CC[C@H](CNc3ncccn3)[C@H](F)C2)cc1 [Form II] | h | 1.5 |

====

test: Repeated once-daily oral dosing with food (Days 1-7) in healthy subjects, PK and PD; type: in vivo, human; settings: both sexes, human, plasma, oral, 12 mg, young subjects, 12 mg, Day 1; read-out: tmax, Median

| Compound | Unit tag | Tmax |
| --- | --- | --- |
| Cc1ccc(COC(=O)N2CC[C@H](CNc3ncccn3)[C@H](F)C2)cc1 [Form II] | h | 1.5 |
